# procedure-summary: Selectivity ratio of serotonin and alpha receptor
# Design: reference not given here
The label true is reserved for Ki ratio strictly under 10; false covers values equal to or above it.

Lab note: confirm whether the reported Ki ratio for this compound is below 10, equality not counting. compound: FC(F)(F)c1cccc(N2CCN(CCCN3CC4CCCN4C3)CC2)c1 (stereo unspecified)
false

Try the compound Clc1cccc(N2CCN(CCCCN3CC4CCCCN4C3)CC2)c1 (stereo unspecified)
true

Then what about the compound FC(F)(F)c1cccc(N2CCN(CCCCN3CC4CCCCN4C3)CC2)c1 (stereo unspecified) ?
true

Same for COc1ccccc1N1CCN(CCCN2C(=O)C3CCCN3C2=O)CC1 (stereo unspecified)
true

# repeat for COc1ccccc1N1CCN(CCCN2CC3CCCN3C2)CC1 (stereo unspecified)
false

Proceed to O=C1C2CCCN2C(=O)N1CCCN1CCN(c2cccc(C(F)(F)F)c2)CC1 (stereo unspecified)
false
